Target: HIV-1 JR-CSF Env N392Q (HIV-1 (isolate JR-CSF)) (UniProt P20871)
Assay: cell-based or functional assay
Item-by-item account of Fold IC50 increase relative to wild-type

Previously resolved entries follow.
binder	result
PGT-125 (antibody, V domains shown) VH: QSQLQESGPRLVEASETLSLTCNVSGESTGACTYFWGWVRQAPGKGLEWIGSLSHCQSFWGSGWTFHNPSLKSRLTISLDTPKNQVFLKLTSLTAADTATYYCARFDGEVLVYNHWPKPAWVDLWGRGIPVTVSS VL: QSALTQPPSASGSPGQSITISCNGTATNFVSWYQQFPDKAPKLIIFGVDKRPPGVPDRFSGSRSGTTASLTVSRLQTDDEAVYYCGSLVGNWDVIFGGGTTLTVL	1.2 fold
PGT-135 (antibody, V domains shown) VH: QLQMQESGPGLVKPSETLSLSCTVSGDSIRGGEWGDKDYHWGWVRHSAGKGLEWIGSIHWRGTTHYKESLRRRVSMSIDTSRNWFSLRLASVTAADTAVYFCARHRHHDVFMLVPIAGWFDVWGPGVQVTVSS VL: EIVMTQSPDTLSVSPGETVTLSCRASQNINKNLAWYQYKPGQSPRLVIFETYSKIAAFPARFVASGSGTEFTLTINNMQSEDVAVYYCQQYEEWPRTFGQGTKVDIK	> 250 fold
PGT-131 (antibody, V domains shown) VH: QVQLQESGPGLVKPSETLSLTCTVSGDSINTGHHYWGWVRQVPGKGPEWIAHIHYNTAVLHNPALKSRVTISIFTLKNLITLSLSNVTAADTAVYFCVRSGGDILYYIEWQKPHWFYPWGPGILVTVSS VL: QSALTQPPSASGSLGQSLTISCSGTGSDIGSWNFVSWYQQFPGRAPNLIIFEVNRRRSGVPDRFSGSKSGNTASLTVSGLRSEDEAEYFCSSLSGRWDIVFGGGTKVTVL	0.4 fold
PGT-130 (antibody, V domains shown) VH: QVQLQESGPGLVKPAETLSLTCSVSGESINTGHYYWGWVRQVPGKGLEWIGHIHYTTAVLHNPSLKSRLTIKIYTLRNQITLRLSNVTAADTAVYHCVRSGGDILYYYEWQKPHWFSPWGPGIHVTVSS VL: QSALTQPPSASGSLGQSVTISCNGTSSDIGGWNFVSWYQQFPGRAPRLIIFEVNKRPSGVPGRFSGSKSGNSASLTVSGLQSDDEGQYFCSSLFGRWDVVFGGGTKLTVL	1.2 fold

Quick one: Fold IC50 increase relative to wild-type of PGT-127 (antibody, V domains shown) VH: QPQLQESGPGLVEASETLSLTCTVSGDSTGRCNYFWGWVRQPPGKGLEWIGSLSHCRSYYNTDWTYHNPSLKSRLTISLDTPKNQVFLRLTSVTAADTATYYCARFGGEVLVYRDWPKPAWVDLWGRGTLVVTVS VL: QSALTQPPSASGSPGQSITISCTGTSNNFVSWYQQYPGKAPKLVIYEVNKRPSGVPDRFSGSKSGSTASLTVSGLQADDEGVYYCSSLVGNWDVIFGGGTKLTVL ?
1.1 fold
